The origin of these recorded values is PubChem BioAssay (NCI).

- System: NCI-H23 lung
- experiment: NCI tumour cell line growth inhibition, 48 h
endpoint: TGI

molecule: COc1cc2c(cc1OC)-c1ncc3cc(OC)c(OC)cc3c1C2
TGI: > 50 µM
--
molecule: CC1(C)CC[C@]2(C(=O)O)CC[C@]3(C)C(=CC[C@@H]4[C@@]5(C)CC[C@H](OC6OC(CO)C(O)C(O)C6O)C(C)(C)[C@@H]5CC[C@]43C)[C@@H]2C1 (stereo partly specified)
TGI: 3.52 µM
--
molecule: COc1ccc(NC(=S)Nc2c(C)n(C)n(-c3ccccc3)c2=O)cc1
TGI: > 100 µM
--
molecule: CCCCCCCCCCCCC(NC(C)=O)(C(=O)OCC)C(=O)OCC
TGI: 24.8 µM
--
molecule: O=C(O)CNC(=O)C1NC(C(F)(F)F)(C(F)(F)F)OC1(C(F)(F)F)C(F)(F)F (stereo unspecified)
TGI: > 100 µM
--
molecule: CCNC1=C(NC(=O)CCl)C(=O)c2ccccc2C1=O
TGI: 36 µM

Input: Suppose we examine the molecule `S=C1SCN(C2CCCCCCCCCCC2)CN1C1CCCCCCCCCCC1` ; what TGI value has been reported?
Output: > 100 µM

Input: Item `Cc1cc(=O)n2nc(CSc3n[nH]c(=S)s3)sc2n1` has what recorded TGI?
Output: > 100 µM

Input: Return reported TGI; argument: `CN1CCN(c2ccc(-c3cccc(CN4CCOCC4)c3)cc2NC(=O)c2c[nH]c(=O)cc2C(F)(F)F)CC1`
Output: > 100 µM
